src = patent US20200157212A1

Recorded IC50, one value per entry.
- target: T1, Terbium (Tb) labeled-SNAP tagged ROBO2 expressed on HEK293 cells (Homo sapiens (Human), UniProt Q9HCK4 22-1378, terbium label on the SNAP tag)
- T1 construct: also called Tb-labeled ROBO2 cells; ROBO2 expressing cells; not shown: SNAP tag
- T1 sequence: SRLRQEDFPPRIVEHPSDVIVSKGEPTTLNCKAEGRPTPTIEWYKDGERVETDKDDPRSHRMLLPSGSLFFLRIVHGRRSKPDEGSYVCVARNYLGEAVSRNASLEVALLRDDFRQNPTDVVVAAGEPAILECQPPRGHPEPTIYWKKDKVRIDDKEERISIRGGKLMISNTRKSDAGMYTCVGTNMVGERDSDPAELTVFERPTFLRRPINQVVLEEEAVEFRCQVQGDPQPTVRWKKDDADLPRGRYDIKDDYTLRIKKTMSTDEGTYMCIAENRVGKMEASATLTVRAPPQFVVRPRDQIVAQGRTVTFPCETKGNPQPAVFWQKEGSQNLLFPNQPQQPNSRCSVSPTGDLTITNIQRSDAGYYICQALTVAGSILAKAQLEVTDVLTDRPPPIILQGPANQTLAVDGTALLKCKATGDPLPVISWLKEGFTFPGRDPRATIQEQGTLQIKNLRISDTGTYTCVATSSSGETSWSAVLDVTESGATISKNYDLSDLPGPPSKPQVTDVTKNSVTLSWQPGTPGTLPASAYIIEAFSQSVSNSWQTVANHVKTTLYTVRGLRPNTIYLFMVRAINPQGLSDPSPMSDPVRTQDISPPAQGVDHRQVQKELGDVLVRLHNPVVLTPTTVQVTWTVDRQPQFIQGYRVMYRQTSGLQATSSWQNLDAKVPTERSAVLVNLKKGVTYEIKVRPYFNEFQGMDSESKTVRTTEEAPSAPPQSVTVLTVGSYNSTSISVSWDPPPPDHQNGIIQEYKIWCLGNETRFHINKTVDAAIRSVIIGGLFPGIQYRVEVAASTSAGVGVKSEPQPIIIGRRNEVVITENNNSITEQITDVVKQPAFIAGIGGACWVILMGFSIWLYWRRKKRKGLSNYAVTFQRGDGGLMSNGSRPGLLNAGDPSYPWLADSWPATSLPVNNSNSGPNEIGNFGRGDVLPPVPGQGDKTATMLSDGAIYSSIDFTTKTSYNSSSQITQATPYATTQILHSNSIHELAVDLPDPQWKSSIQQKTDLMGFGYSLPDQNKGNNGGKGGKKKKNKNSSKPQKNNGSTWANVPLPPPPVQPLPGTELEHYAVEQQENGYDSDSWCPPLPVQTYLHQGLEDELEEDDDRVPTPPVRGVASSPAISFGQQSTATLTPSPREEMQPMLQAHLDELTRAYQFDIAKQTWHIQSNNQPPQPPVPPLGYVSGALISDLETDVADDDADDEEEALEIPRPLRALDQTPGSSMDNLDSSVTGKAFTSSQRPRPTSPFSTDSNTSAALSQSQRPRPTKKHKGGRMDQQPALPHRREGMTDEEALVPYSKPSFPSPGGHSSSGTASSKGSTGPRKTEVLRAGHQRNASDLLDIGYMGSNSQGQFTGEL
- experimentalProtocol: HTRF competition, competitor d2-SLIT2-N, ROBO2 HEK293 cells
Give the value in nM but do not write nM after it.

Before answering, review these 3 worked examples.
binder	IC50 (nM)
CTIR2-5 (antibody, human IgG1, kappa, V domains shown, CDR-shuffled IgG) VH: EVQLVQSGAEVKKPGASVKVSCKASGYTFTGYYMHWVRQAPGQGLEWMGWINPKSGATNFPQKFQGRVTMTRDTSITTAYMDLSRLRSDDTAVYYCARESGDDAFDIWGQGTMVTVSS VL: DIVMTQSPSSLSASVGDRVTITCRASQKISSYLNWYQQKPGKAPKLLIYAASSLQSGVPSRFSGSGSGTDFTLTISSLQPEDFATYYCQQSLELGFGGGTKVEIKR	0.165
CTIR2-15 (antibody, human IgG1, kappa, V domains shown, CDR-shuffled IgG) VH: EVQLVQSGAEVKKPGASVKVSCKASGYTFRGYAMHWVRQAPGQGLEWMGWIDPRTGLTKFPQKFQGRVTMTRDTSITTAYMDLSRLRSDDTAVYYCARESGDDAFDIWGQGTMVTVSS VL: DIVMTQSPSSLSASVGDRVTITCRASQKISSYLNWYQQKPGKAPKLLIYAASSLQYGVPSRFSGSGSGTDFTLTISSLQPEDFATYYCQQSVGLSFGGGTKVEIKR	0.05
Abcs50 (antibody, human IgG1, kappa, V domains shown, chain-shuffled IgG) VH: EVQLVQSGAEVKKPGASVKVSCKASGYTFTGYYMHWVRQAPGQGLEWMGWINPKNGDTEFPQKFQGRVTMTRDTSITTAYMDLSRLRSDDTAVYYCARESGDDAFDIWGQGTMVTVSS VL: DIVMTQSPSSLSASVGDRVTITCRASQSISSYLNWYQQKPGKAPKLLIYAASSLQYGVPSRFSGSGSGTDFTLTISSLQPEDFATYYCQQSYSTSFGGGTKVEIKR	0.051

stdin: Which IC50 is listed for CTIR2-2 (antibody, human IgG1, kappa, V domains shown, CDR-shuffled IgG) VH: EVQLVQSGAEVKKPGASVKVSCKASGYTFTGYYMHWVRQAPGQGLEWMGWINPRSGATNFPQKFQGRVTMTRDTSITTAYMDLSRLRSDDTAVYYCARESGDDAFDIWGQGTMVTVSS VL: DIVMTQSPSSLSASVGDRVTITCRASQSISSYLNWYQQKPGKAPKLLIYAASSLQYGVPSRFSGSGSGTDFTLTISSLQPEDFATYYCQQSVGLSFGGGTKVEIKR ?
stdout: 0.109

stdin: Which IC50 is listed for Abcs12 (antibody, human IgG1, kappa, V domains shown, chain-shuffled IgG; also called Abes12) VH: EVQLVQSGAEVKKPGASVKVSCKASGYTFTGYYMHWVRQAPGQGLEWMGWINPRNGITSFPQKFQGRVTMTRDTSITTAYMDLSRLRSDDTAVYYCARESGDDAFDIWGQGTMVTVSS VL: DIVMTQSPSSLSASVGDRVTITCRASQSISSYLNWYQQKPGKAPKLLIYAASSLQSGVPSRFSGSGSGTDFTLTISSLQPEDFATYYCQQSLELGFGGGTKVEIKR ?
stdout: 0.032

stdin: Which IC50 is listed for CTIR2-4 (antibody, human IgG1, kappa, V domains shown, CDR-shuffled IgG) VH: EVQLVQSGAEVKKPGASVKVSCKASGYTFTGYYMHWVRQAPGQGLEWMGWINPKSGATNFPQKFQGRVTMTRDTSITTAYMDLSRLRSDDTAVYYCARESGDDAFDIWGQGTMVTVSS VL: DIVMTQSPSSLSASVGDRVTITCRASQKISSYLNWYQQKPGKAPKLLIYAASSLQYGVPSRFSGSGSGTDFTLTISSLQPEDFATYYCQQSYSTSFGGGTKVEIKR ?
stdout: 0.38

stdin: Which IC50 is listed for Ab22 (antibody, human IgG1, kappa, V domains shown, full-length human IgG) VH: EVQLVQSGAEVKKPGASVKVSCKASGYTFTGYYMHWVRQAPGQGLEWMGWINPRSGATNFPQKFQGRVTMTRDTSITTAYMDLSRLRSDDTAVYYCARESGDDAFDIWGQGTMVTVSS VL: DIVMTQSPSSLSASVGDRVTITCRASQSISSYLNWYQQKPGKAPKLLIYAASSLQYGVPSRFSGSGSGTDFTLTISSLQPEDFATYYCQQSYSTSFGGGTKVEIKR ?
stdout: 0.229

stdin: Which IC50 is listed for Abcs5 (antibody, human IgG1, kappa, V domains shown, chain-shuffled IgG) VH: EVQLVQSGAEVKKPGASVKVSCKASGYTFTGYYMHWVRQAPGQGLEWMGWINPKNGDTEFPQKFQGRVTMTRDTSITTAYMDLSRLRSDDTAVYYCARESGDDAFDIWGQGTMVTVSS VL: DIVMTQSPSSLSASVGDRVTITCRASQSISSYLNWYQQKPGKAPKLLIYAASSLQSGVPSRFSGSGSGTDFTLTISSLQPEDFATYYCQQSLELGFGGGTKVEIKR ?
stdout: 0.036

stdin: Which IC50 is listed for Abcs25 (antibody, human IgG1, kappa, V domains shown, chain-shuffled IgG) VH: EVQLVQSGAEVKKPGASVKVSCKASGYTFTGYYMHWVRQAPGQGLEWMGWINPKDGDTEFPQKFQGRVTMTRDTSITTAYMDLSRLRSDDTAVYYCARESGDDAFDIWGQGTMVTVSS VL: DIVMTQSPSSLSASVGDRVTITCRASQSISSYLNWYQQKPGKAPKLLIYAASSLQSGVPSRFSGSGSGTDFTLTISSLQPEDFATYYCQQSVGLSFGGGTKVEIKR ?
stdout: 0.042

stdin: Which IC50 is listed for Abcs20 (antibody, human IgG1, kappa, V domains shown, chain-shuffled IgG) VH: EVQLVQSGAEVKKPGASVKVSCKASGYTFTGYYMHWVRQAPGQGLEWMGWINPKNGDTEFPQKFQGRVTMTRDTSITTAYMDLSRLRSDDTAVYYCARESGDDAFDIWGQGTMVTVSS VL: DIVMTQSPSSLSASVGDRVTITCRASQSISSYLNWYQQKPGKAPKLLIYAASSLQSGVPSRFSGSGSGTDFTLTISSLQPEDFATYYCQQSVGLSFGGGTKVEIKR ?
stdout: 0.04
